- Test system: BDF1 mice, P388 leukemia ip, median survival T/C
- experimentalDetails: NCI In Vivo Anticancer Drug Screen. Data for tumor model P388 Leukemia (intraperitoneal) in B6D2F1 (BDF1) mice
- conditionsUsed: endpoint: median survival time; dose: 25.0 mg/kg/injection; schedule: Q04DX003 (ip); vehicle: saline
Inconclusive results and toxic doses are left out. Rule for the calls: active = survival T/C of 150% or more; inactive = T/C below 125% in these data.
Outcome (select one): YES = active, NO = inactive

CCCCCCCCN(N)C12CC3CC(CC(C3)C1)C2 | NO

Next item in the queue.
Name the outcome recorded for OCC(I)C(CO)[n+]1ccccc1 (stereo unspecified) in the assay. NO

---

- Tested on: BDF1 mice, P388 leukemia ip, median survival T/C
- experimentalDetails: NCI In Vivo Anticancer Drug Screen. Data for tumor model P388 Leukemia (intraperitoneal) in B6D2F1 (BDF1) mice
- conditionsUsed: endpoint: median survival time; dose: 100.0 mg/kg/injection; schedule: Q04DX003 (ip); vehicle: other
Inconclusive results and toxic doses are left out. The calls were made as follows: active = survival T/C of 150% or more; inactive = T/C below 125% in these data.
Thanks in advance; please answer with one of these: 1 (active), -1 (inactive)

Recorded results for 3 molecules are shown here.
CCC(C)(C)c1ccc(Oc2ccccc2)c(N)c1 | -1
Cc1ccn(-c2ccccc2)n1 | -1
Cc1ccc(S(=O)(=O)OC2CCCCCCCCCCC2=O)cc1 (stereo unspecified) | -1

What outcome does the record of this test show for `C[NH-].C[NH-].O=C(O)C(=O)O.[Pt+2]` ? -1

---

- Test system: BDF1 mice, P388 leukemia ip, median survival T/C
- experimentalDetails: NCI In Vivo Anticancer Drug Screen. Data for tumor model P388 Leukemia (intraperitoneal) in B6D2F1 (BDF1) mice
- conditionsUsed: endpoint: median survival time; dose: 50.0 mg/kg/injection; schedule: Q01DX009 (ip); vehicle: saline with Tween-80; higher = longer survival
Inconclusive results and toxic doses are left out.
readoutName: T/C

Below, 5 compounds whose answers are already recorded.
CC[C@@H]1C[C@H]2CC3c4c(c5cc(OC)ccc5n4C)CCN(C2)C31 | 102 % of control
COc1cc2c(cc1O)C(=O)CCC(C(=O)O)=C2 | 111 % of control
CN1CC=Nc2c1nc(N)[nH]c2=O | 102 % of control
O=c1nc[nH]c(=O)[nH]1 | 99 % of control
S=c1[nH]nc(Nc2ccccc2Cl)s1 | 100 % of control

Endpoint output: T/C of CS(=O)CC(O)(c1ccccc1)c1cccs1 (stereo not drawn) . Value? 100 % of control

GET /values?readout=T/C&item= `CN(C)c1ccc(/C=C/c2cc(N(CCO)CCO)c3ccccc3n2)cc1` 100 % of control

Given the entry `Cc1c[se]c(=S)s1` , report its measured T/C. 96 % of control

---

- Test system: BDF1 mice, P388 leukemia ip, median survival T/C
- experimentalDetails: NCI In Vivo Anticancer Drug Screen. Data for tumor model P388 Leukemia (intraperitoneal) in B6D2F1 (BDF1) mice
- conditionsUsed: endpoint: median survival time; dose: 100.0 mg/kg/injection; schedule: Q04DX003 (ip); vehicle: saline with Tween-80
Inconclusive results and toxic doses are left out. The calls were made as follows: active = survival T/C of 150% or more; inactive = T/C below 125% in these data.
The reply should be one of these categories: y = active, n = inactive

Cc1ccc2[nH]c(=S)[nH]c(=S)c2c1 | n
COc1ccc(C(C(N)=O)N2CCCC2)cc1 (configuration not stated) | n
CCOC(=O)C(C)(C(=O)OCC)c1ccccc1 | n
C=CCOc1ccccc1OC | n
CC(Br)C(=O)NC(Cc1ccccc1)C(=O)O (configuration not stated) | n

Please indicate how the test categorized `Cc1ccc2c(=O)n3cccc3c(=O)[nH]c2c1O` . n

What outcome does the record of this test show for `CN(C)c1ccc(/C=N/NC(N)=S)nc1` ? y
